The reported numbers originate from paper PMC9154192.

Experiment: in vitro
Format: cell-based
Conditions: human; A549
MEASURED_PROPERTY: CC50

Recorded CC50, per entry:
COC(=O)[C@@H]1CCC(=O)N1Cc1cc2ccc(OC)cc2c2cc(OC)c(OC)cc12 | > 500 µg/mL
CCCCOc1ccc2cc(CN3C(=O)CC[C@H]3C(=O)OC)c3cc(OC)c(OC)cc3c2c1 | > 500 µg/mL
NNC(=O)c1ccncc1 [INH, isoniazid, reference compound] | > 500 µg/mL
CO[C@H]1/C=C/O[C@@]2(C)Oc3c(C)c(O)c4c(O)c(c(/C=N/N5CCN(C)CC5)c(O)c4c3C2=O)NC(=O)/C(C)=C\C=C\[C@H](C)[C@H](O)[C@@H](C)[C@@H](O)[C@@H](C)[C@H](OC(C)=O)[C@@H]1C [RIF, rifampicin, reference compound] | > 500 µg/mL

Let us examine a further case.
## Task Find the recorded CC50 belonging to COC(=O)[C@@H]1CCC(=O)N1Cc1cc2ccc(OCc3ccccc3)cc2c2cc(OC)c(OC)cc12 and report it.
## Result > 500 µg/mL

---

System: Proteus mirabilis
Experiment: Broth dilution MIC (CLSI)
Assay type: cell-based
Details: read-out: MIC
Text: […]
Answer each item with its documented MIC.

CCCCOc1ccc2cc(CN3C(=O)CC[C@H]3C(=O)OC)c3cc(OC)c(OC)cc3c2c1 [PP2S] | > 100 µg/mL
[H]/N=C(/N)N[C@H]1[C@H](O)[C@@H](O)[C@H](O[C@@H]2O[C@@H](C)[C@](O)(C=O)[C@H]2O[C@@H]2O[C@@H](CO)[C@H](O)[C@@H](O)[C@@H]2NC)[C@@H](N/C(N)=N\[H])[C@@H]1O [STR, streptomycin] | 6.3 µg/mL
COC(=O)[C@@H]1CCC(=O)N1Cc1cc2ccc(OCc3ccccc3)cc2c2cc(OC)c(OC)cc12 [PP3S] | > 100 µg/mL
NNC(=O)c1ccncc1 [INH, isoniazid, reference compound] | > 100 µg/mL

Now for the compound whose MIC we want.
## Task # query: MIC | item COC(=O)[C@@H]1CCC(=O)N1Cc1cc2ccc(OC)cc2c2cc(OC)c(OC)cc12 [PP1S] | system: Proteus mirabilis
## Result > 100 µg/mL

---

System: Staphylococcus aureus, MRSA
Test: Broth dilution MIC (CLSI)
Format: cell-based
Details: read-out: MIC
MEASURED_PROPERTY: MIC

Look over these answered cases.
COC(=O)[C@@H]1CCC(=O)N1Cc1cc2ccc(OC)cc2c2cc(OC)c(OC)cc12 | > 100 µg/mL
[H]/N=C(/N)N[C@H]1[C@H](O)[C@@H](O)[C@H](O[C@@H]2O[C@@H](C)[C@](O)(C=O)[C@H]2O[C@@H]2O[C@@H](CO)[C@H](O)[C@@H](O)[C@@H]2NC)[C@@H](N/C(N)=N\[H])[C@@H]1O | 3.1 µg/mL
CCCCOc1ccc2cc(CN3C(=O)CC[C@H]3C(=O)OC)c3cc(OC)c(OC)cc3c2c1 | > 100 µg/mL

Below is a list of compounds. For each, state its recorded MIC.
1. COC(=O)[C@@H]1CCC(=O)N1Cc1cc2ccc(OCc3ccccc3)cc2c2cc(OC)c(OC)cc12
2. NNC(=O)c1ccncc1 [INH, isoniazid, reference compound]

## Result
["> 100 µg/mL", "> 100 µg/mL"]
